# target or system: human P2X4 (Homo sapiens)
# Sequence (Q99571 whole entry): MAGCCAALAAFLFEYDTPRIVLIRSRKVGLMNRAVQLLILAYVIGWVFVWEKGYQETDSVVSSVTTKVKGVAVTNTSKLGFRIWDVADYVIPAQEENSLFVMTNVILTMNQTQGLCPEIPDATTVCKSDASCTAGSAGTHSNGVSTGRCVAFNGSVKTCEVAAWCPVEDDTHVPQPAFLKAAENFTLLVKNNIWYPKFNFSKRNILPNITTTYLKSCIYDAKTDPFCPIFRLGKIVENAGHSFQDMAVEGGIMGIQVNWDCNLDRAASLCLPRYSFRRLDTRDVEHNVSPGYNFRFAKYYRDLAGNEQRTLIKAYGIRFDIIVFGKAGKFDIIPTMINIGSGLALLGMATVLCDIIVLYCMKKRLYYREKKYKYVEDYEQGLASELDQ
# test summary: Human P2X4 HEK Cell FLIPR Assay
# condition context: HEK293 cells, agonist Bz-ATP at EC80; individual values listed where some fall outside detection range
Each entry below carries its reported log10 of IC50.
Form field - Quantity: IC50; Unit: nM; Scale: log10

Sample records with log10 of IC50:
Lookup: Sample NS(=O)(=O)c1cc(NC(=O)Cc2ccccc2Cl)ccc1-n1cnc2ccncc21 — what was its log10 of IC50?
Found: 2.96

Lookup: Now the molecule CC(C)Cc1ncn(-c2ccc(NC(=O)Cc3ccccc3Cl)cc2S(N)(=O)=O)n1
Found: 2.05

Lookup: Then Cc1ccccc1CC(=O)Nc1ccc(-n2cc(C#N)cn2)c(S(N)(=O)=O)c1 ?
Found: 1.93

Lookup: Follow-up entry: NS(=O)(=O)c1cc(NC(=O)Cc2ccccc2Cl)ccc1-n1cc2cccnc2n1
Found: 2.41

Next:
Lookup: Which value of log10 of IC50 has been reported for NS(=O)(=O)c1cc(NC(=O)Cc2ccccc2Cl)ccc1-c1nnc(C(F)F)o1 in the records?
Found: 1.85

Lookup: Same question for NS(=O)(=O)c1cc(NC(=O)Cc2ccccc2Cl)ccc1-c1cncc(C(=O)N2CCCC2)c1 please.
Found: 2.11

Lookup: Note, next up: NS(=O)(=O)c1cc(NC(=O)Cc2ccccc2Cl)ccc1-c1cc[nH]c1
Found: 2.10

Lookup: Cool, now NS(=O)(=O)c1cc(NC(=O)Cc2ccccc2Cl)ccc1-c1ccns1
Found: 1.34

Lookup: Record: NS(=O)(=O)c1cc(NC(=O)Cc2c(Cl)cccc2Cl)ccc1-n1cc(F)cn1
Found: 1.54

Lookup: Similarly, NS(=O)(=O)c1cc(NC(=O)Cc2ccc(C(F)(F)F)cc2Cl)ccc1-c1ccc(Cl)nc1 ?
Found: 2.51

Lookup: Now consider N#Cc1cnn(-c2ccc(NC(=O)Cc3cccc(O)c3Cl)cc2S(N)(=O)=O)c1 .
Found: 2.58

Lookup: How about this molecule: N#Cc1cnn(-c2ccc(NC(=O)Cc3cc(F)cc(F)c3)cc2S(N)(=O)=O)c1
Found: 2.73
